Cited source for all entries: patent US20240018237A1

target: T1, human ROR1 (full-length, on the cell surface) (human, UniProt Q01973 30-937)
T1 construct: whole, on cells; the tumour cell lines carry their own ROR1; also called Ba/F3-ROR1 cells; Jeko-1
T1 sequence (Q01973 30-937): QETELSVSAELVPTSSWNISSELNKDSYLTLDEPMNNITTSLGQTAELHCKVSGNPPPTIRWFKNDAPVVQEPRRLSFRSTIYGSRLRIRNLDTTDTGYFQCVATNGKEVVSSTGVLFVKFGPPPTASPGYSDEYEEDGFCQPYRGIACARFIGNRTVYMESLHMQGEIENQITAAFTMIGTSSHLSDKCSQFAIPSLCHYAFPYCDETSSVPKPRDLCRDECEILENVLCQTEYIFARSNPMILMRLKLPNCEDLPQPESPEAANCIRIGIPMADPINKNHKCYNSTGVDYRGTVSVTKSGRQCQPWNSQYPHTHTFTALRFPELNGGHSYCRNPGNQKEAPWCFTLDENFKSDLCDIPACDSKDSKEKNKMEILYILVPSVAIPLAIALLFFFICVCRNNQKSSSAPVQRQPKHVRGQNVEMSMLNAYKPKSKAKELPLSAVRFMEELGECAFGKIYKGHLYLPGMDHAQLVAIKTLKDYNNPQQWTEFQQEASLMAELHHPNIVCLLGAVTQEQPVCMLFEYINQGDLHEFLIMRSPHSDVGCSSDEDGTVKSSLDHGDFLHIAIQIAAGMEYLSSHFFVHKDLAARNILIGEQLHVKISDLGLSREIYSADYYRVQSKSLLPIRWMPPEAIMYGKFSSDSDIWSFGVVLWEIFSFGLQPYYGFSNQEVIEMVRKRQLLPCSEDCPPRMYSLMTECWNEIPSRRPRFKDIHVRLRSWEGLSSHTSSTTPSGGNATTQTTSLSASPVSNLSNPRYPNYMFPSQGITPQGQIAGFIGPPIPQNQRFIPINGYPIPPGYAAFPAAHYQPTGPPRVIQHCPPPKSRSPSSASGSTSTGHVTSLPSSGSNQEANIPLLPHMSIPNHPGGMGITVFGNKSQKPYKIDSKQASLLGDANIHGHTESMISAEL
assay-details: flow cytometry, Jeko-1 cells
readout: EC50 (nM)
// units = nM; emit number, no label

# annotated cases, reported EC50 shown
[
  {
    "binder": "38F8-Hu58 (antibody, human IgG1, kappa, V domains shown, humanized, human IgG1 / kappa) VH: EVQLVESGGGLVQPGGSLRLSCAASGFTFSNYAMSWVRQAPEKRLEWVASISSGGPTYYPDSVKGRFTVSRDNSKNTLYLQMNSLRAEDTAVYYCARGYRYDVNWYFDVWGAGTMVTVSS VL: DIQMTQSPSSLSASVGDRVTITCQASQDINSYLTWFQQKPGKSPKTLIHRANRLVTGVPSRFSGSGSGTDYTFTISSLQPEDIAIYYCLQYDEFPYTFGGGTKVEIKR",
    "readout": "EC50",
    "unit-spec": "nM",
    "numeric-readout": 0.09
  },
  {
    "binder": "19F6-Hu35V7 (antibody, human IgG1, kappa, V domains shown, humanized, human IgG1 / kappa) VH: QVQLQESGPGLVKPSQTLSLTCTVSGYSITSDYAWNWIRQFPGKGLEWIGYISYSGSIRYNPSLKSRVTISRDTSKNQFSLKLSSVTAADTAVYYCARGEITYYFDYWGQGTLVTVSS VL: ETTLTQSPAFMSATPGDKVTISCKASTSIDDDMNWYQQKPGKPPKLIISEGNTLRPGIPPRFSSSGYGTDFTFTINNIQSEDAATYYCLQSNDLPLTFGQGTKLEIKR",
    "readout": "EC50",
    "unit-spec": "nM",
    "numeric-readout": 0.22
  },
  {
    "binder": "19F6-Hu35V2 (antibody, human IgG1, kappa, V domains shown, humanized, human IgG1 / kappa) VH: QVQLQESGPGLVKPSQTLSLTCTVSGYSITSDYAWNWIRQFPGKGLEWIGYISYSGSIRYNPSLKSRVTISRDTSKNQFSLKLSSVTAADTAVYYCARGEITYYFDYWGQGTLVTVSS VL: ETTLTQSPAFMSATPGDKVTISCKASTDIDSDMNWYQQKPGEPPKLIISEGNTLRPGIPPRFSSSGYGTDFTFTINKIKSEDAATYYCLQSNDLPLTFGQGTKLEIKR",
    "readout": "EC50",
    "unit-spec": "nM",
    "numeric-readout": 0.19
  },
  {
    "binder": "19F6-Hu31 (antibody, human IgG1, kappa, V domains shown, humanized, human IgG1 / kappa) VH: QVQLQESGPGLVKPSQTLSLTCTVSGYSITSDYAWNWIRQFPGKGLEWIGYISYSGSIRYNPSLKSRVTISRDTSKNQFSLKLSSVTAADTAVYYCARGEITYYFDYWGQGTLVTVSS VL: DIQMTQSPSSLSASVGDRVTITCITTTDIDDDMNWYQQKPGKAPKLLISEGNTLRPGVPSRFSGSGYGTDFTLTISSLQPEDFATYYCLQSNDLPLTFGQGTKLEIKR",
    "readout": "EC50",
    "unit-spec": "nM",
    "numeric-readout": 0.18
  },
  {
    "binder": "38F8-Hu64 (antibody, human IgG1, kappa, V domains shown, humanized, human IgG1 / kappa) VH: QVQLVESGGGLVKPGGSLRLSCAASGFTFSNYAMSWVRQAPEKRLEWVASISSGGPTYYPDSVKGRFTISRDNAKNSLYLQMNSLRAEDTAVYYCARGYRYDVNWYFDVWGAGTMVTVSS VL: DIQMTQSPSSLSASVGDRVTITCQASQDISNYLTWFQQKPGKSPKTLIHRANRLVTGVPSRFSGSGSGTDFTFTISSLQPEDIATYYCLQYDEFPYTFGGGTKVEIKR",
    "readout": "EC50",
    "unit-spec": "nM",
    "numeric-readout": 0.09
  }
]

Request: Reported EC50 for 19F6-Hu15 (antibody, human IgG1, kappa, V domains shown, humanized, human IgG1 / kappa) VH: QVQLQESGPGLVKPSETLSLTCTVTGYSITSDYAWNWIRQPPGKGLEWMGYISYSGSIRYKPSLKDRITISRDTSKNQFSLKLSSVTAADTAVYYCARGEITYYFDYWGQGTLVTVSS VL: ETTLTQSPAFMSATPGDKVTISCKASTDIDDDMNWYQQKPGEPPKLIISEGNTLRPGIPPRFSSSGYGTDFTFTINNIESEDAADYYCLQSNDLPLTFGQGTKLEIKR : what is it?
Response: 0.21

Request: Reported EC50 for 3D8-Hu47 (antibody, human IgG1, kappa, V domains shown, humanized, human IgG1 / kappa) VH: EVQLVESGGGLVQPGGSLRLSCAASGFTFSSYAMSWVRQAPGKGLEWVSSINSGGSTYYPDSVKGRFTISRDNSKNTLYLQMNSLRAEDTAVYYCARVNYYGYGDYAMDYWGQGTLVTVSS VL: DIQMTQSPSSLSASVGDRVTITCQASQDISNYLSWFQQKPGKSPKTLIYRANRLVTGVPSRFSGSGSGTDYTFTISSLQPEDIATYYCLQYDEFPYTFGGGTKLEIKR : what is it?
Response: 0.08

Request: Reported EC50 for 19F6-Hu35V6 (antibody, human IgG1, kappa, V domains shown, humanized, human IgG1 / kappa) VH: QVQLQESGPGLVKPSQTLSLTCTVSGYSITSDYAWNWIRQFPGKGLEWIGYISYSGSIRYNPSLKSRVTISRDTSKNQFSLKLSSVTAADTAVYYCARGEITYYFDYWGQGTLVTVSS VL: ETTLTQSPAFMSATPGDKVTISCKASTDIDNDMNWYQQKPGKPPKLIISEGNTLRPGIPPRFSSSGYGTDFTFTINNIKSEDAATYYCLQSNDLPLTFGQGTKLEIKR : what is it?
Response: 0.2

Request: Reported EC50 for 19F6-Hu35V9 (antibody, human IgG1, kappa, V domains shown, humanized, human IgG1 / kappa) VH: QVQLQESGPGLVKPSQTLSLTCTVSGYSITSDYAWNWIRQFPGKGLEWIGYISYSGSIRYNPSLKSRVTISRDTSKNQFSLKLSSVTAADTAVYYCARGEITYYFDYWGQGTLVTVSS VL: ETTLTQSPAFMSATPGDKVTISCKASTSIDDDMNWYQQKPGKPPKLIISEGNTLRPGIPPRFSSSGYGTDFTFTIRKIESEDAADYYCLQSNDLPLTFGQGTKLEIKR : what is it?
Response: 0.28

Request: Reported EC50 for 38F8-Hu38 (antibody, human IgG1, kappa, V domains shown, humanized, human IgG1 / kappa) VH: QVQLVESGGGLVKPGGSLRLSCAASGFTFSNYAMSWVRQAPGKGLEWVASISSGGPTYYADSVKGRFTISRDNAKNSLYLQMNSLRAEDTAVYYCARGYRYDVNWYFDVWGAGTMVTVSS VL: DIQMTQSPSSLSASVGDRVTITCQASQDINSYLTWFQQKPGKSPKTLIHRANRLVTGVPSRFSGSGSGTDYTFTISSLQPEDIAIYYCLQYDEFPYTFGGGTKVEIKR : what is it?
Response: 0.13
